target-or-system: T1, Human CD137 shuffle 2 (amino acids 139-161 replaced by wild boar CD137) (human, amino acids 139-161 from wild …, UniProt Q07011 24-255)
T1 construct: also called shuffle construct 2
T1 chain: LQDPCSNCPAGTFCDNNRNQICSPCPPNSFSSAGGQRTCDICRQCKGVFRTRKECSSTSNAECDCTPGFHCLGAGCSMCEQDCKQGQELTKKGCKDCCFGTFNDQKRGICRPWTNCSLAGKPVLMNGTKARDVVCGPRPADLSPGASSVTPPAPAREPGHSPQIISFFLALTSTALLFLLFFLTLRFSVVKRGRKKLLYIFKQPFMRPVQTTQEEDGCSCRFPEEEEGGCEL
experiment: flow cytometry on transfected HEK293T-17 cells, 1 µg/mL antibody
Procedure: 3×10⁶ HEK293T-17 cells were seeded in T75 culture flasks (Greiner Bio-One, cat. no. 658175) in 20 mL RPMI 1640 GlutaMAX medium containing 10% FCS (Biochrom, cat. no. S 0115). […] Binding of the different CD137 antibody clones to cells expressing the shuffle constructs was measured by incubation of the transduced cells with 1 μg/mL of the antibody clones, followed by APC-labeled AffiniPure F(ab′)2 Fragment (1:50 final dilution; Jackson, cat. no. 109-136-127).
endpoint-name: binding result

1. CD137 antibody clone 001 (rabbit) (antibody, human IgG1, kappa, V domains shown, also called Clone 1; CD137 clone 001) VH: QSVEESGGRLVTPGTPLTLTCTVSGFSLSSYAVSWVRQAPGKGLEWIGVIWNNGATHYATWAKGRFTISKASTTVDLKVTSPTTEDTATYFCARSANDAWSTYSDLWGQGTLVTVSS VL: DIVMTQTPASVEAAVGGTVTIKCQASQTITNYLSWYQQKPGQPPKLLIYKASTLTSGVSSRFKGSGSGTEFTLTISDLESDDAATYYCQNYYYGSSSGYGFVFGGGTEVVVKR ... binds
2. CD137 antibody clone 006 (rabbit) (antibody, human IgG1, kappa, V domains shown, also called Clone 6; CD137 clone 006) VH: QSVEESGGRLVTPGTPLTLTCTVSGFSLSSYAMSWVRQAPGKGLEWIGIISTSGITYYASWAKGRFTISKTSTMVDLKITSPTTEDTATYFCARLNGFDDYVRYFDFWGLGTLVTVSS VL: AIELTQTPSSVSAAVGGTVTINCQASESIASNLAWYQQKPGQPPKLLIYAASYLASGVPSRFKGSGSGTEYTLTISGVQSADAATYYCQSAFYVSSSDNAFGGGTEVVVKR ... binds
